# System: HT29 colon
# assayMethodText: NCI-60 one-dose screen, 48 h (100 = growth as untreated, 0 = no growth, -100 = all killed)
# conditionDetails: 10 µM unless noted
About 83,000 compounds went through this panel and 20% of them were active in at least one assay; those are over-represented in the sample as a whole. Active and inactive are the calls of the source. The calls were made as follows: active = growth percent below 10; inactive = the rest.
Items are presented alongside their recorded growth.

>  <molSmiles>
CC(C)(C)c1ccc(Cn2cc(CSc3nc4ccccc4s3)nn2)cc1

>  <studySystem>
HT29 colon

>  <parameterMeasured>
growth

>  <recordedMeasurement>
99.6% (inactive)

$$$$
>  <molSmiles>
CN(C[C@@H]1COCCO1)S(=O)(=O)Nc1ccc2ccc3ncc(-c4cnn(C)c4)cc3c(=O)c2c1

>  <studySystem>
HT29 colon

>  <parameterMeasured>
growth

>  <recordedMeasurement>
51.3% (inactive)

$$$$

What the record says about CN1CCN(c2ccc(C(=O)Nc3n[nH]c4ccc(Cc5cc(F)cc(F)c5)cc34)c(NC3CCOCC3)c2)CC1 : growth is -56.8% (active)

Briefly, growth measured for COc1ccc2c(c1OC)C(=O)O[C@@H]2[C@H]1c2c(c(C#CC#Cc3ccc(F)c(F)c3)c3c(c2OC)OCO3)CCN1C : 92.3% (inactive)

* * *

# System: CCRF-CEM leukemia
# assayMethodText: NCI-60 one-dose screen, 48 h (100 = growth as untreated, 0 = no growth, -100 = all killed)
# conditionDetails: 10 µM unless noted
The panel holds about 83,000 compounds, 20% with a hit somewhere; the sample as a whole holds those more often.
Respond with YES for growth values of 60% and above, NO for values below.

Before answering, review these 8 worked examples.
>  <compound>
CCCCn1c(C)nc2cc(Nc3nc(N4CCCCC4)nc4nc[nH]c34)ccc21

>  <studySystem>
CCRF-CEM leukemia

>  <assignedCategory>
NO

$$$$
>  <compound>
Cc1c(N)ccc(-c2ccc(N)c(C)c2S(=O)(=O)O)c1S(=O)(=O)O

>  <studySystem>
CCRF-CEM leukemia

>  <assignedCategory>
YES

$$$$
>  <compound>
CC(C)(C)CC(C)(C)Nc1c(-c2c(O)c3ccccc3oc2=O)nc2c(Cl)cc(C(F)(F)F)cn12

>  <studySystem>
CCRF-CEM leukemia

>  <assignedCategory>
YES

$$$$
>  <compound>
CC(C)=CCc1cc2c(cc1O)C1=C(C(=O)C3=C(C1=O)S(=O)(=O)CCN3)C(C=C(C)C)O2 (stereo not given)

>  <studySystem>
CCRF-CEM leukemia

>  <assignedCategory>
NO

$$$$
>  <compound>
CC(=O)OCCC/C(=C\c1ccc2ccccc2c1)[N+](=O)[O-]

>  <studySystem>
CCRF-CEM leukemia

>  <assignedCategory>
NO

$$$$
>  <compound>
CCOC(=O)C1=C(C)N=C2Sc3cccc(OC)c3N2[C@H]1c1ccccn1

>  <studySystem>
CCRF-CEM leukemia

>  <assignedCategory>
YES

$$$$
>  <compound>
CCn1cc(-c2ccnc3[nH]c(-c4cccc(CN(C)C)c4)cc23)c(-c2ccc(NC(=O)N(C)C)cc2)n1

>  <studySystem>
CCRF-CEM leukemia

>  <assignedCategory>
NO

$$$$
>  <compound>
N#Cc1c(-c2ccc(Cl)cc2)csc1NC(=O)Nc1cccc(C(F)(F)F)c1

>  <studySystem>
CCRF-CEM leukemia

>  <assignedCategory>
NO

$$$$

Next compound, please.
Qu. Does the reported growth for CSc1nc2ncnc(SC)c2[nH]1 fall at or above the 60% mark?
Ans. YES

* * *

# Test system: RXF 393 renal
# assayMethodText: NCI-60 one-dose screen, 48 h (100 = growth as untreated, 0 = no growth, -100 = all killed)
# conditionDetails: 10 µM unless noted
About 83,000 compounds went through this panel and 20% of them were active in at least one assay; those are over-represented in the sample as a whole.
growth vs -40%: at or above is TRUE, below is FALSE.

Please review the entries below; each comes with its answer.
>  <compound>
COc1cccc(Nc2ncnn3ccc(CN4CC[C@@H](N)[C@H](O)C4)c23)c1

>  <assignedCategory>
FALSE

$$$$
>  <compound>
CCN1CCN(c2cc(C)nc(N(CCCNc3ccnc4cc(Cl)ccc34)Cc3cccs3)n2)CC1

>  <assignedCategory>
FALSE

$$$$
>  <compound>
C=CCCCOC1[C@H](OCc2ccccc2)C(OCc2ccccc2)C(OC)O[C@@H]1CNC(=O)c1cccc(I)c1 (some centres undefined)

>  <assignedCategory>
TRUE

$$$$
>  <compound>
CCOc1ccc(N=C(C)Nc2ccc(OCC)cc2)cc1

>  <assignedCategory>
TRUE

$$$$
>  <compound>
CN1CCN(CCOc2cc(OC3CCOCC3)c3c(Nc4c(Cl)ccc5c4OCO5)ncnc3c2)CC1

>  <assignedCategory>
TRUE

$$$$
>  <compound>
Cn1ccnc1C(=O)/C=C/c1ccc(CC(=O)Nc2ccc(S(F)(F)(F)(F)F)cc2)cc1

>  <assignedCategory>
FALSE

$$$$
>  <compound>
c1cc(OCCN2CCCCC2)cc(-c2n[nH]c3ccc(-c4ncn[nH]4)cc23)c1

>  <assignedCategory>
TRUE

$$$$
>  <compound>
CCc1cnn2c(NCc3ccc[n+]([O-])c3)cc(N3CCCC[C@H]3CCO)nc12

>  <assignedCategory>
FALSE

$$$$

# ---- query compound ----
Qu. Reported growth at or above -40%? C[C@@H](Nc1cc(F)cc(F)c1)c1cc(C(=O)N(C)C)cc2c(=O)cc(N3CCOCC3)oc12
Ans. TRUE

* * *

// reported growth for each item listed
# Test system: UO-31 renal
# assayMethodText: NCI-60 one-dose screen, 48 h (100 = growth as untreated, 0 = no growth, -100 = all killed)
# conditionDetails: 10 µM unless noted
Compounds without any hit were thinned out: in the full panel of roughly 83,000, 20% have a hit.
Give the value in % but do not write % after it.

Please review the following examples before continuing.
>  <compound>
CC[C@@H]1C(=O)N(C)c2cnc(Nc3ccc(C(=O)NC4CCC(N5CCN(CC6CC6)CC5)CC4)cc3OC)nc2N1C(C)C (some centres undefined)

>  <parameterMeasured>
growth

>  <recordedMeasurement>
-52.3

$$$$
>  <compound>
C=C1C(=O)O[C@H]2[C@H]1CC/C(CNC(=O)c1cc3cc(OC)ccc3[nH]1)=C\CC[C@@]1(C)O[C@@H]21

>  <parameterMeasured>
growth

>  <recordedMeasurement>
-75.8

$$$$

// assay UO-31 renal, entry CNC(=O)c1cc(COc2nnc(Nc3ccc(Cl)cc3)c3ccoc23)ccn1 , growth value = -3.27

UO-31 renal data for O=C(NCCO)Nc1ccc(-c2nc(N3CCOCC3)c3cccn3n2)cc1 ; its growth: -18.2

Hey, UO-31 renal data for Cc1cc2c(-c3nc4ccccn4c3NC34CC5CC(CC(C5)C3)C4)c(O)c(O)cc2c(O)c1-c1c(C)cc2c(-c3nc4ccccn4c3NC34CC5CC(CC(C5)C3)C4)c(O)c(O)cc2c1O : growth came out at -2.25

Test item COC(=O)C1=C(C(=O)OC)C23C=C(C)C1C2=C(C)C1(CC1)[C@@](C)(O)C3=O (some centres undefined) ; UO-31 renal; reported growth was -28

UO-31 renal data for CC(C)CC(=O)Nc1n[nH]c2c1CN(C(=O)C1CCN(C)CC1)C2(C)C ; its growth: 80.9

Note to self: growth of COc1cc(NCCN(CC(C)C)CC(C)C)c2ncc(C)cc2c1 with UO-31 renal was 64

# Clc1ccc(C(Cn2ccnc2)OCc2ccsc2Cl)c(Cl)c1 (centres undefined) with UO-31 renal: growth is 25.8

* * *

# Test system: SW-620 colon
# assayMethodText: NCI-60 one-dose screen, 48 h
# conditionDetails: 10 µM unless noted
Compounds without any hit were thinned out: in the full panel of roughly 83,000, 20% have a hit. Activity calls are given as the source filed them. Rule for the calls: active = growth percent below 10; inactive = the rest.
// classify into class 1 (active), class 0 (inactive)

Past entries and their recorded results:
>  <compound>
COc1ccc(-c2ccc3c(N4CCOC[C@@H]4C)nc(N4CCOC[C@@H]4C)nc3n2)cc1CO

>  <assignedCategory>
class 1

$$$$
>  <compound>
CS(=O)(=O)N1CCN(Cc2cc3nc(-c4cccc5[nH]ncc45)nc(N4CCOCC4)c3s2)CC1

>  <assignedCategory>
class 0

$$$$
>  <compound>
COc1ccc(S(=O)(=O)N(C(C)=O)c2ccccc2/C=C/c2cc[n+]([O-])cc2)cc1

>  <assignedCategory>
class 0

$$$$
>  <compound>
CCOC(=O)C1=C(C)N=C2Sc3cc(OC(F)(F)F)ccc3N2[C@H]1c1ccccn1

>  <assignedCategory>
class 0

$$$$
>  <compound>
O=C1C=CC2(NN=C(c3ccccc3)N2c2cccc(Cl)c2)C(Cl)=C1 (configuration not stated)

>  <assignedCategory>
class 0

$$$$
>  <compound>
COc1cnc2c(c1)C(=O)c1c-2n(CCCN2CCC(O)CC2)c(=O)c2cc(Cl)ccc12

>  <assignedCategory>
class 1

$$$$
>  <compound>
COc1ccc(-n2c(=O)c3ccccc3n(Cc3ccc(C(=O)NO)cc3)c2=O)cc1

>  <assignedCategory>
class 1

$$$$
>  <compound>
C=CC[n+]1c(/C=C/C=C2\N(C)c3ccccc3C2(C)C)sc2ccc(OC)cc21

>  <assignedCategory>
class 0

$$$$
>  <compound>
Cc1cc(O)cc(-c2c(-c3ccnc(-c4cccnc4)c3)cnn2C)c1

>  <assignedCategory>
class 0

$$$$
>  <compound>
COC(=O)[C@]12CC[C@@H](C)[C@H](C)[C@@H]1C1=CC[C@@H]3[C@@]4(C)C[C@@H](OC(=O)/C=C/c5ccccc5)[C@H](O)[C@@](C)(CO)[C@@H]4[C@H](O)C[C@@]3(C)[C@]1(C)CC2

>  <assignedCategory>
class 1

$$$$

Qu. Please share the test call associated with CC(=O)NCC(=O)N1[C@@H]2CC[C@H]1c1ccc(Nc3ncc(C(F)(F)F)c(NC4CCC4)n3)cc12 .
Ans. class 0

Qu. What outcome does the record of this test show for C=CC(=O)Nc1cc2c(Nc3ccc(F)c(Cl)c3)ncnc2cc1C#CC(C)(C)N1CCN(C)CC1 ?
Ans. class 1
